Study Target: BLT1 (LTB4) (h) (Homo sapiens, UniProt Q15722)
Construct: expressed in transfected cells; host or cells: CHO cells
Sequence (Q15722 whole entry): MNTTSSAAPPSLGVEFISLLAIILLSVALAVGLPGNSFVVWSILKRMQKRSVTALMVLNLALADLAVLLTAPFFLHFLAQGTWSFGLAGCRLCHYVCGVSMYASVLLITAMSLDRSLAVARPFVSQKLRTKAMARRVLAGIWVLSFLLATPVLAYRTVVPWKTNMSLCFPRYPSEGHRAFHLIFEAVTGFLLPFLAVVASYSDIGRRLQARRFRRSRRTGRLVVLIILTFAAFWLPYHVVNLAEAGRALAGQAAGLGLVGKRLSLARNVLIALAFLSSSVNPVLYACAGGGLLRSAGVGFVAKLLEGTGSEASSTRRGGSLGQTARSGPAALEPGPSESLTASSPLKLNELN
Method: Binding BLT1 (LTB4) (h) (ag)
Experimental Setup: read-out: % Inhibition of Control Specific Binding @ 10 μM
I'd appreciate it if you could supply inhibition at 10 µM values for the items below.
Express the result in % but write the number alone.

What the record says about CC1(C)C(=O)N(c2ccc(C#N)c(C(F)(F)F)c2)C(=O)N1c1ccc(C(N)=O)c(F)c1 : inhibition at 10 µM is -4

For this molecule ( CNC(=O)c1ccc(N2C(=O)N(c3ccc(C#N)c(C(F)(F)F)c3)C(=O)C2(C)C)cc1F ), measured inhibition at 10 µM is -6

The value of inhibition at 10 µM measured for the molecule CC1(C)C(=O)N(c2ccc(C#N)c(C(F)(F)F)c2)C(=S)N1c1ccc(C(=O)O)c(F)c1 turned out to be -15

CC1(C)C(=O)N(c2ccc(C#N)c(C(F)(F)F)c2)C(=S)N1c1ccc(C(N)=O)c(F)c1 has a reported inhibition at 10 µM of -8

---

Study Target: GABA transaminase (Rattus norvegicus, UniProt P50554)
Construct: rat brain; from tissue; host or cells: rat brain
Sequence (P50554 28-500): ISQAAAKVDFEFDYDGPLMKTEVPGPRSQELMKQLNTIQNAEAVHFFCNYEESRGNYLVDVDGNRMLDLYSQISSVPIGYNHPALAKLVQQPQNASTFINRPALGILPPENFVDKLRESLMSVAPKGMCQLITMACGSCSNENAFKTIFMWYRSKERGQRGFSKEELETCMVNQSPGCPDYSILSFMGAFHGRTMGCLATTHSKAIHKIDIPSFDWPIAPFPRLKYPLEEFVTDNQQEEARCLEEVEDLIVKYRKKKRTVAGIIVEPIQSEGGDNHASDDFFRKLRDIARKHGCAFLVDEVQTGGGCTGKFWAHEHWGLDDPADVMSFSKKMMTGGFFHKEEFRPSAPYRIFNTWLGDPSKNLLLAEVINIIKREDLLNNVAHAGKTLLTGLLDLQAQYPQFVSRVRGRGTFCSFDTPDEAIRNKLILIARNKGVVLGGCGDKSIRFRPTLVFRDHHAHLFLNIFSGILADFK
Method: Enzyme assay GABA transaminase
Type: biochemical
Experimental Setup: read-out: % Inhibition of Control Values @ 10 μM
Readout Name: inhibition at 10 µM (%)
Your answer is read as %, so omit the unit and give the number.

Record CC1(C)C(=O)N(c2ccc(C#N)c(C(F)(F)F)c2)C(=S)N1c1ccc(C(N)=O)c(F)c1 . Reported inhibition at 10 µM: -5

// inhibition at 10 µM lookup, molecule = CC1(C)C(=O)N(c2ccc(C#N)c(C(F)(F)F)c2)C(=O)N1c1ccc(C(N)=O)c(F)c1 , result: -2

Measured inhibition at 10 µM, CC1(C)C(=O)N(c2ccc(C#N)c(C(F)(F)F)c2)C(=S)N1c1ccc(C(=O)O)c(F)c1 : -7

Per the record, CNC(=O)c1ccc(N2C(=O)N(c3ccc(C#N)c(C(F)(F)F)c3)C(=O)C2(C)C)cc1F has inhibition at 10 µM of -1

---

Provide the reported inhibition at 10 µM of each item.
Study Target: Neurokinin NK3 (h) (Homo sapiens)
Construct: expressed in transfected cells; host or cells: CHO cells
Sequence (P29371 whole entry): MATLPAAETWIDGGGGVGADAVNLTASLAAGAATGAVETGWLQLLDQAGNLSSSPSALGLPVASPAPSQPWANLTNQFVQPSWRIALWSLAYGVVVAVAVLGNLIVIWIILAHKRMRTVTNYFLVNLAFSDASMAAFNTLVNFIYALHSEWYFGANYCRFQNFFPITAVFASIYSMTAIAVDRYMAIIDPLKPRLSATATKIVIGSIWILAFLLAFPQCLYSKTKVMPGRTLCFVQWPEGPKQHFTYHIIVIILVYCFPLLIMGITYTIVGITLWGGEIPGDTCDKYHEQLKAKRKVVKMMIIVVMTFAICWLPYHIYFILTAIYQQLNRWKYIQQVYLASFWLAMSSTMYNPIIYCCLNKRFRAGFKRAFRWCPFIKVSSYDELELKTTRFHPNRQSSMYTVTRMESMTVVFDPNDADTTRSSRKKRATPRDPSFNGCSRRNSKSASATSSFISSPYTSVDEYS
Method: Binding NK3 (h) (aa)
Experimental Setup: read-out: % Inhibition of Control Specific Binding @ 10 μM
Report the figure in % without appending any unit label.

Recorded result, CC1(C)C(=O)N(c2ccc(C#N)c(C(F)(F)F)c2)C(=S)N1c1ccc(C(N)=O)c(F)c1 , inhibition at 10 µM: 3

So, CC1(C)C(=O)N(c2ccc(C#N)c(C(F)(F)F)c2)C(=O)N1c1ccc(C(N)=O)c(F)c1 ? Its inhibition at 10 µM was -2

Consider CNC(=O)c1ccc(N2C(=O)N(c3ccc(C#N)c(C(F)(F)F)c3)C(=O)C2(C)C)cc1F . Its measured inhibition at 10 µM is -7

Measured inhibition at 10 µM, CC1(C)C(=O)N(c2ccc(C#N)c(C(F)(F)F)c2)C(=S)N1c1ccc(C(=O)O)c(F)c1 : -11

---

Study Target: Melanocortin MC4 (h) (Homo sapiens, UniProt P32245)
Construct: expressed in transfected cells; host or cells: CHO cells
Sequence (P32245 whole entry): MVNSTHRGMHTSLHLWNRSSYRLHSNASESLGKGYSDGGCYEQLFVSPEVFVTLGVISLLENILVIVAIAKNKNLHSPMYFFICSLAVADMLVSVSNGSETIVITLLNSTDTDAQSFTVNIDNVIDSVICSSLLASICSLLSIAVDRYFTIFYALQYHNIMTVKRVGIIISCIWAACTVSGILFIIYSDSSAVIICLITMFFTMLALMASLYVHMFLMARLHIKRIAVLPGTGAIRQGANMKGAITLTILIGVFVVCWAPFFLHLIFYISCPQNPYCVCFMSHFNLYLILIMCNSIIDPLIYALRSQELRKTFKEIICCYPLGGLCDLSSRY
Method: Binding MC4 (h) (ag)
Experimental Setup: read-out: % Inhibition of Control Specific Binding @ 10 μM
I'd appreciate it if you could supply inhibition at 10 µM values for the items below.
Just the number please, in %, no unit attached.

The reported Melanocortin MC4 (h) (Homo sapiens, UniProt P32245) inhibition at 10 µM of CC1(C)C(=O)N(c2ccc(C#N)c(C(F)(F)F)c2)C(=S)N1c1ccc(C(N)=O)c(F)c1 is -25

The compound CC1(C)C(=O)N(c2ccc(C#N)c(C(F)(F)F)c2)C(=O)N1c1ccc(C(N)=O)c(F)c1 on Melanocortin MC4 (h) (Homo sapiens, UniProt P32245): inhibition at 10 µM was -11

Item CNC(=O)c1ccc(N2C(=O)N(c3ccc(C#N)c(C(F)(F)F)c3)C(=O)C2(C)C)cc1F was tested on Melanocortin MC4 (h) (Homo sapiens, UniProt P32245); the reported inhibition at 10 µM is -15

CC1(C)C(=O)N(c2ccc(C#N)c(C(F)(F)F)c2)C(=S)N1c1ccc(C(=O)O)c(F)c1 on Melanocortin MC4 (h) (Homo sapiens, UniProt P32245) gives inhibition at 10 µM = -23

---

Study Target: Histamine H2 (h) (Homo sapiens, UniProt P25021)
Construct: expressed in transfected cells; host or cells: CHO cells
Sequence (P25021 whole entry): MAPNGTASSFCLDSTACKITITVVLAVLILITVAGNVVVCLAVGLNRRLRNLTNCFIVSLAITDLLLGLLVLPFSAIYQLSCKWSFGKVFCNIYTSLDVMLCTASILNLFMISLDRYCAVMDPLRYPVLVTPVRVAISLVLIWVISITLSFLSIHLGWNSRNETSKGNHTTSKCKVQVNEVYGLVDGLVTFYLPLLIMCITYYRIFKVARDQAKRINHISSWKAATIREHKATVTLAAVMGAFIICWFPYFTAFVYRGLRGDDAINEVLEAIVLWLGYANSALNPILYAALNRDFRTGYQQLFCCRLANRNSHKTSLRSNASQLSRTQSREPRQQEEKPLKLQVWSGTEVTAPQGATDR
Method: Binding H2 (h) (aa)
Experimental Setup: read-out: % Inhibition of Control Specific Binding @ 10 μM
Field: inhibition at 10 µM. Provide a value for each of the compounds that follow.
Give just the numeric value; % need not be written.

// assay Histamine H2 (h) (Homo sapiens, UniProt P25021), entry CNC(=O)c1ccc(N2C(=O)N(c3ccc(C#N)c(C(F)(F)F)c3)C(=O)C2(C)C)cc1F [(MIV)] , inhibition at 10 µM value = -20

Entry CC1(C)C(=O)N(c2ccc(C#N)c(C(F)(F)F)c2)C(=O)N1c1ccc(C(N)=O)c(F)c1 [(MIII)] , tested on Histamine H2 (h) (Homo sapiens, UniProt P25021), has a reported inhibition at 10 µM of -19

# CC1(C)C(=O)N(c2ccc(C#N)c(C(F)(F)F)c2)C(=S)N1c1ccc(C(=O)O)c(F)c1 [(MI)] with Histamine H2 (h) (Homo sapiens, UniProt P25021): inhibition at 10 µM is -41

Entry CC1(C)C(=O)N(c2ccc(C#N)c(C(F)(F)F)c2)C(=S)N1c1ccc(C(N)=O)c(F)c1 [(MII)] , tested on Histamine H2 (h) (Homo sapiens, UniProt P25021), has a reported inhibition at 10 µM of -27

---

Test system: SKCa channel
Method: Binding SKCa channel (aa)
Set-up: species or system rat
Readout Name: % Inhibition of Control Specific Binding @ 10 μM (%)
Reply numerically in %, unit not repeated.

For reference, reported % Inhibition of Control Specific Binding @ 10 μM for CC1(C)C(=O)N(c2ccc(C#N)c(C(F)(F)F)c2)C(=S)N1c1ccc(C(=O)O)c(F)c1 [(MI)] stands at −6

So, CC1(C)C(=O)N(c2ccc(C#N)c(C(F)(F)F)c2)C(=O)N1c1ccc(C(N)=O)c(F)c1 [(MIII)] ? Its % Inhibition of Control Specific Binding @ 10 μM was 1

get_value(item= CNC(=O)c1ccc(N2C(=O)N(c3ccc(C#N)c(C(F)(F)F)c3)C(=O)C2(C)C)cc1F [(MIV)] , readout=% Inhibition of Control Specific Binding @ 10 μM) returns −10

Data point: CC1(C)C(=O)N(c2ccc(C#N)c(C(F)(F)F)c2)C(=S)N1c1ccc(C(N)=O)c(F)c1 [(MII)] ; % Inhibition of Control Specific Binding @ 10 μM = 4

---

System: GABA transporter
Method: Binding GABA transporter (aa)
Set-up: species or system rat
Readout Name: % Inhibition of Control Specific Binding @ 10 μM (%)
Field format: number, assumed %, no unit text.

Param item: CNC(=O)c1ccc(N2C(=O)N(c3ccc(C#N)c(C(F)(F)F)c3)C(=O)C2(C)C)cc1F [(MIV)] ; param system: GABA transporter; output % Inhibition of Control Specific Binding @ 10 μM: −24

Bench note, GABA transporter: CC1(C)C(=O)N(c2ccc(C#N)c(C(F)(F)F)c2)C(=S)N1c1ccc(C(N)=O)c(F)c1 [(MII)] , % Inhibition of Control Specific Binding @ 10 μM reads 7

Fill in: GABA transporter % Inhibition of Control Specific Binding @ 10 μM for CC1(C)C(=O)N(c2ccc(C#N)c(C(F)(F)F)c2)C(=O)N1c1ccc(C(N)=O)c(F)c1 [(MIII)] = −35

Noted % Inhibition of Control Specific Binding @ 10 μM for CC1(C)C(=O)N(c2ccc(C#N)c(C(F)(F)F)c2)C(=S)N1c1ccc(C(=O)O)c(F)c1 [(MI)] , tested on GABA transporter: −16

---

Study Target: PDE3A (h) (Homo sapiens, UniProt Q14432)
Construct: host or cells: Sf9 cells
Sequence (Q14432 whole entry): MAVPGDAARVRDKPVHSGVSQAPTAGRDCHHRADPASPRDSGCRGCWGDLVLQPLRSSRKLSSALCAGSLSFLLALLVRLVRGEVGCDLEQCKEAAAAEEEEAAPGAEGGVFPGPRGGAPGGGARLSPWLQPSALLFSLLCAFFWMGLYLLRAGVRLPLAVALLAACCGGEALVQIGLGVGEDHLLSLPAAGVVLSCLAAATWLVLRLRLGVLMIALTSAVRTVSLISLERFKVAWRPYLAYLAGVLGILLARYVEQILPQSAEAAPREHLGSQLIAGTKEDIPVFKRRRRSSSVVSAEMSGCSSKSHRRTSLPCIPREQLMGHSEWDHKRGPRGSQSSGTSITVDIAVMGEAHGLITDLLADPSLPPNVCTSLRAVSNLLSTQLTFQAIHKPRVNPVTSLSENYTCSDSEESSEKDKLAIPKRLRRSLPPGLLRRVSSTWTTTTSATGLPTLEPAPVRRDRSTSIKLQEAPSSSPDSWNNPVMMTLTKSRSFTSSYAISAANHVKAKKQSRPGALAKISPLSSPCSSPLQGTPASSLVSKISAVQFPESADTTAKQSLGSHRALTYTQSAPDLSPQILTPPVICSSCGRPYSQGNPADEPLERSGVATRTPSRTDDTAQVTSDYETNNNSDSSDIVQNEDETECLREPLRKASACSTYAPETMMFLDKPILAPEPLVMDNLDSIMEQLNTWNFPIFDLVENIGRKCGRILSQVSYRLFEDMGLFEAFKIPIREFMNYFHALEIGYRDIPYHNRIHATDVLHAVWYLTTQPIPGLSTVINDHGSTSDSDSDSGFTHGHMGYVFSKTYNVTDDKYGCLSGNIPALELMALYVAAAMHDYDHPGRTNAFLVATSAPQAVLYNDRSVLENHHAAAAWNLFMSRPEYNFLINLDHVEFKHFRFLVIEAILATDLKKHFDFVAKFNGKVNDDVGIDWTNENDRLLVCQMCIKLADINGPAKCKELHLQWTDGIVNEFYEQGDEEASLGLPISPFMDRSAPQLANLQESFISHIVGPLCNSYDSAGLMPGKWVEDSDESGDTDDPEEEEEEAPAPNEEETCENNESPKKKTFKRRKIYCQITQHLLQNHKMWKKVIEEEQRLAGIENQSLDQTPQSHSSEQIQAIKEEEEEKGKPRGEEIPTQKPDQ
Method: Enzyme assay PDE3A (h)
Format: biochemical
Experimental Setup: read-out: % Inhibition of Control Values @ 10 μM
Readout Name: inhibition at 10 µM (%)
Answer in %, number only, no unit symbol.

PDE3A (h) (Homo sapiens, UniProt Q14432) assay, molecule CC1(C)C(=O)N(c2ccc(C#N)c(C(F)(F)F)c2)C(=O)N1c1ccc(C(N)=O)c(F)c1 , recorded inhibition at 10 µM = 4

The molecule CNC(=O)c1ccc(N2C(=O)N(c3ccc(C#N)c(C(F)(F)F)c3)C(=O)C2(C)C)cc1F , tested on PDE3A (h) (Homo sapiens, UniProt Q14432), showed inhibition at 10 µM of 2

// returns inhibition at 10 µM for CC1(C)C(=O)N(c2ccc(C#N)c(C(F)(F)F)c2)C(=S)N1c1ccc(C(=O)O)c(F)c1 with PDE3A (h) (Homo sapiens, UniProt Q14432); value = 3

The molecule CC1(C)C(=O)N(c2ccc(C#N)c(C(F)(F)F)c2)C(=S)N1c1ccc(C(N)=O)c(F)c1 , tested on PDE3A (h) (Homo sapiens, UniProt Q14432), showed inhibition at 10 µM of 0
